Target: T1, BCMA expressed on multiple myeloma cell lines H929 and MM1S (UniProt Q02223 1-184, limits assumed)
T1 construct: whole, on cells; Endogenous BCMA on tumour cell lines; also called BMCA; cell surface BCMA
T1 sequence (looked up): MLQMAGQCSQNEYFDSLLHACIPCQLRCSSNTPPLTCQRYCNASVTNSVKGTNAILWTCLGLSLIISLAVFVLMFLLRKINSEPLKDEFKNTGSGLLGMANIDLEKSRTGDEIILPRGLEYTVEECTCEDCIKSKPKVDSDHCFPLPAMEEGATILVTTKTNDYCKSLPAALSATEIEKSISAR
Assay: flow cytometry, H929 cells, purified VH domain (text: 1 uM); control iso_anti-His-PE Mean 13.5 [B), H929 table]
Please go through the items and note down their Mean FL2-H.
One number for each entry.

Worked set:
binder	Mean FL2-H
Clone MN8 (VH domain) (VHH, Single-domain antibody: a VH domain from a synthetic phage library, not camelid; Expressed in E. coli) VHH: EVQLVESGGGLVQPGGSLRLSCAASGFTFSSYAMGWVRQAPGKGPEVVSLISGSGGSTWYDDSVKGRFTISRDNSKNTLYLQMNSLRAEDTAVYYCASPEDAPSYSRWGQGTLVTVSS	15.1
Clone MN5 (VH domain) (VHH, Single-domain antibody: a VH domain from a synthetic phage library, not camelid; Expressed in E. coli) VHH: EVQLVESGGGLVQPGGSLRLSCAASGFTFSSYAMGWVRQAPGKGPEVVSLISGSGGSTWYDDSVKGRFTISRDNSKNTLYLQMNSLRAEDTAVYYCASREDNMTTWGQGTLVTVSS	25.6
Clone MN1 (VH domain) (VHH, Single-domain antibody: a VH domain from a synthetic phage library, not camelid; Expressed in E. coli) VHH: EVQLVESGGGLVQPGGSLRLSCAASGFTFTAYDMGWVRQAPGKGPEWVSLISSDSGDTWYDDSVKGRFTISRDNSKNTLYLQMNSLRAEDTAVYYCARLGAYSTTYDYWGQGTLVTVSS	62.9

-- ask What value of Mean FL2-H has been reported for the following binder? Clone MN7 (VH domain) (VHH, Single-domain antibody: a VH domain from a synthetic phage library, not camelid; Expressed in E. coli) VHH: EVQLVESGGGLVQPGGSLRLSCAASGFTFSSYAMGWVRQAPGKGPEVVSLISGSGGSTWYDDSVKGRFTISRDNSKNTLYLQMNSLRAEDTAVYYCASPEDMYQTWGQGTLVTVSS
-- reply 14.8
